The measured values listed here are drawn from patent US11479802B2.

# test system: human HSD17B13 (Homo sapiens, UniProt Q7Z5P4)
# assay notes: Substrate screening of steroid and bioactive lipid libraries against purified recombinant HSD17B13 (NADH-linked luciferase assay)
# Assay type: biochemical
# reported conditions: Bioactive Lipid Library, 5 μM bioactive lipid, normalized to 50 μM estradiol after subtraction of 5% DMSO
# Method: To understand the functional consequences of premature truncation of the HSD17B13 protein due to rs72613567:TA (the associated variant, rs72613567, is an insertion of an adenine adjacent to the donor splice site of exon six (TA allele)), the enzymatic activity of isoforms A and D was evaluated in vitro using recombinant protein and nicotinamide […] dinucleotide as cofactor. […]
property label: HSD17B13 Enzymatic Activity Percent Estradiol Control (%)

1. CCCCC/C=C\C\C=C/C=C/C=C/[C@H](O)[C@@H](O)CCCC(=O)O [5(S),6(S)-DiHETE] : 4.07
2. CCCCC/C=C\C/C=C\C=C\[C@@H](O)CCCCCCC(=O)O [8(S)-HETrE] : 9.38
3. CCCCC[C@H](O)/C=C/[C@H]1[C@H](O)C[C@]2(C)C/C(=C\CCCC(=O)[O-])C[C@H]12.CCCCC[C@H](O)/C=C/[C@H]1[C@H](O)C[C@]2(C)C/C(=C\CCCC(=O)[O-])C[C@H]12.[Ca+2] [Ciprostene (calcium salt)] : 6.12
4. CCCCC[C@@H](/C=C/C=C\CCCCCCCCCC(=O)O)OO [15(S)-HpEDE] : −4.02

---

# test system: HSD17B5 (Homo sapiens, UniProt P42330)
# Construct: made in house
# Sequence (P42330 whole entry): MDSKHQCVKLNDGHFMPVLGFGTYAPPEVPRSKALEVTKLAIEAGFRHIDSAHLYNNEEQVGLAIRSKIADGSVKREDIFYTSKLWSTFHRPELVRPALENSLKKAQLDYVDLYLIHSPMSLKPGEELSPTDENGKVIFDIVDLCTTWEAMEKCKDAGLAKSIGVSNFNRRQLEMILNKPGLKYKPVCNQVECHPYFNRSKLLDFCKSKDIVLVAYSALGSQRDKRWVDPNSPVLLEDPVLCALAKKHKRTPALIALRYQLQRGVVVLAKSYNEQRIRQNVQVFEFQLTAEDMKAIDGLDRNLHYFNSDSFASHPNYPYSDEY
# assay notes: Steroid substrate panel against HSD17B family member B5
# Type: biochemical
# reported conditions: substrate at 50 μM; estradiol set as 100%
Here the recorded Percent of Control (POC), B5 is given for each entry.
property label: Percent of Control (POC), B5 (%)

1. CC1(C)[C@@H](O[C@H]2O[C@H](C(=O)O)[C@@H](O)[C@H](O)[C@H]2O[C@@H]2O[C@H](C(=O)O)[C@@H](O)[C@H](O)[C@H]2O)CC[C@]2(C)[C@H]3C(=O)C=C4[C@@H]5C[C@@](C)(C(=O)O)CC[C@]5(C)CC[C@@]4(C)[C@]3(C)CC[C@@H]12 [Glycyrrhizic acid] : 0
2. C[C@]12CC[C@@H](O)C[C@@H]1CC[C@@H]1[C@@H]2CC[C@]2(C)C(=O)[C@H](O)C[C@@H]12 [16alpha-Hydroxyandrosterone] : 45
3. C[C@]12CCC(=O)C[C@@H]1CC[C@@H]1[C@@H]2CC[C@]2(C)[C@@H](O)CC[C@@H]12 [DHT, dihydroxy testosterone (DHT)] : 0
4. C[C@]12CC[C@@H]3c4ccc(O)cc4CC[C@H]3[C@@H]1CC[C@@H]2O [Estradiol] : 100

---

Here the recorded HSD17B13 Enzymatic Activity Relative Light Units is given for each entry.
# test system: human HSD17B13 (Homo sapiens, UniProt Q7Z5P4)
# assay notes: Substrate screening of steroid and bioactive lipid libraries against purified recombinant HSD17B13 (NADH-linked luciferase assay)
# Type: biochemical
# reported conditions: Bioactive Lipid Library, 5 μM bioactive lipid (Estradiol Control 50 μM), 500 μM NAD+, 100 ng enzyme, 3 hours at 23° C.
Counter-ions that a name gives are not always drawn.
property label: HSD17B13 Enzymatic Activity Relative Light Units

1) CCCCC[C@H](O)/C=C/C=C\C/C=C\CCCCCCC(=O)O [15(S)-HETrE] : 638320 RLU
2) CN(C)C(=O)CCSC(SCCC(=O)O)c1cccc(/C=C/c2ccc3ccc(Cl)cc3n2)c1 (centres unmarked) : 281520 RLU
3) CC/C=C\C/C=C\C/C=C\C/C=C\CC(O)/C=C/C=C\CCC(=O)O (racemic) [(±)8-HDHA] : 773120 RLU
4) CCCCC[C@H](O)/C=C/[C@H]1[C@H](O)CC(=O)[C@@H]1CCCCC(=O)O [2,3-dinor Prostaglandin E1] : 344240 RLU
5) CCCCC/C=C\C/C=C\C/C=C\C=C\[C@H](CCCC(=O)O)OO [5(S)-HpETE] : 225600 RLU
6) CCCCC/C=C\C/C=C\CC(O)/C=C/C=C\CCCC(=O)O (racemic) [(±)9-HETE] : 1110120 RLU
7) CC/C=C\C/C=C\C=C\[C@@H](O)CCCCCCCC(=O)O [9(S)-HOTrE] : 586800 RLU
8) O=P(O)(O)OC1[C@@H](O)[C@@H](O)C(OP(=O)(O)O)[C@H](O)[C@H]1O (some centres unmarked) [(sodium salt)] : 439280 RLU

---

Here the recorded HSD17B13 Enzymatic Activity Relative Light Units is given for each entry.
# test system: human HSD17B13 (Homo sapiens)
# assay notes: Substrate screening of steroid and bioactive lipid libraries against purified recombinant HSD17B13 (NADH-linked luciferase assay)
# Type: biochemical
# reported conditions: Bioactive Lipid Library, 5 μM bioactive lipid (Estradiol Control 50 μM), 500 μM NAD+, 100 ng enzyme, 3 hours at 23° C.
Where a name gives a salt, the structure may show the parent alone.
property label: HSD17B13 Enzymatic Activity Relative Light Units (RLU)

1. CC/C=C\C[C@H](O)/C=C/[C@H]1C=CC(=O)[C@@H]1C/C=C\CCCC(=O)O : 227000
2. CCCCC/C=C\C[C@@H](O)/C=C/C=C/C=C\[C@@H](O)CCCC(=O)N(C)C [Leukotriene B4 dimethyl amide] : 1910040
3. CC/C=C\C/C=C\C/C=C\C[C@H](O)/C=C/C=C\CCCC(=O)O [9(S)-HEPE] : 564200
4. CCCCC/C=C\C[C@@H](O)/C=C/C=C/C=C\[C@@H](O)CCCC(=O)NCCO [Leukotriene B4 Ethanolamide] : 1948920
5. CC/C=C\C/C=C\C/C=C\C=C\C(O)C/C=C\CCCC(=O)O (racemic) [(±)8-HEPE] : 472800
6. O=C(O)CCC/C=C\C/C=C\C/C=C\C/C=C\CCCCCO : 332640
7. CCCCCC(O)C(O)C/C=C\C/C=C\C/C=C\CCCC(=O)O (racemic) [(±)14(15)-DiHET] : 403560
8. CC/C=C\C[C@@H](/C=C/C=C\C/C=C\C/C=C\CCCC(=O)O)OO [15(S)-HpEPE] : 316200
9. O=C(O)CCCCC(=O)CC[C@H]1[C@H](O)CC(=O)[C@@H]1CCC(=O)O : 348440
10. O=P(O)(O)O[C@@H]1[C@@H](OP(=O)(O)O)[C@@H](OP(=O)(O)O)[C@@H](O)[C@H](O)[C@H]1OP(=O)(O)O [(ammonium salt)] : 372320
11. CCCCC/C=C\C/C=C\C/C=C\CC1OC1CCCC(=O)O (racemic) [(±)5(6)-EET] : 360960
12. CCCCC[C@H](O)/C=C/[C@@H]1[C@@H](C/C=C\CC(=O)O)[C@@H](O)C[C@@H]1O : 265000
13. CCC(O)C(O)C/C=C\C/C=C\C/C=C\C/C=C\CCCC(=O)O (racemic) [(±)17(18)-DiHETE] : 369120
14. CC/C=C\C[C@H](O)/C=C/C=C\CCCCCCCC(=O)O [13(S)-HOTrE] : 528240
15. CCCCCCCC[C@H](O)/C=C/C=C\C=C\[C@H](O)CCCC(=O)O : 2077280
16. [2H]C([2H])(CC(=O)CC[C@H]1C(=O)C[C@H](O)[C@@H]1CCC(=O)O)C([2H])([2H])C([2H])([2H])C(=O)O : 375520

---

# test system: human HSD17B13 (Homo sapiens, UniProt Q7Z5P4)
# Sequence (Q7Z5P4 20-300): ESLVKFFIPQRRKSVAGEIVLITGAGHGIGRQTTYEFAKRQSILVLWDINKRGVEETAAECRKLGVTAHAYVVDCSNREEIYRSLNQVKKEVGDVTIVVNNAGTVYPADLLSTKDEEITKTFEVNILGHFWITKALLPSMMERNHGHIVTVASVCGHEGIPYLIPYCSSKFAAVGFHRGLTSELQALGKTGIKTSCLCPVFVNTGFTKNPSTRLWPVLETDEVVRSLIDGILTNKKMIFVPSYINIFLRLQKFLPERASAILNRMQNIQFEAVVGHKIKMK
# assay notes: Substrate screening of steroid and bioactive lipid libraries against purified recombinant HSD17B13 (NADH-linked luciferase assay)
# Type: biochemical
# reported conditions: Bioactive Lipid Library, 5 μM bioactive lipid, normalized to 50 μM estradiol after subtraction of 5% DMSO
Structures can show the parent of a compound that is named as a salt.
property label: HSD17B13 Enzymatic Activity Percent Estradiol Control (%)

1. CC/C=C\C[C@H](O)/C=C/[C@H]1C=CC(=O)[C@@H]1C/C=C\CCCC(=O)O : −4.43
2. CC/C=C\C/C=C\C=C\[C@@H](O)C/C=C\C/C=C\CCCC(=O)O [11(S)-HEPE] : 92.11
3. CCCCCCCC[C@H](O)/C=C/C=C\C=C\[C@H](O)CCCC(=O)O : 141.82
4. CCCCC[C@H](O)/C=C/[C@H]1[C@@H](O)CC(=O)[C@@H]1C/C=C\CCCC(=O)O [11β-Prostaglandin E2] : 5.67
5. CCC(O)C(O)C/C=C\C/C=C\C/C=C\C/C=C\CCCC(=O)O (racemic) [(±)17(18)-DiHETE] : 3.33
6. CCCCC/C=C\C/C=C\C/C=C\C=C\[C@@H](O)CCCC(=O)OC (racemic) [(±)5-HETE methyl ester] : 3.78
7. CCCCCCCC/C(=C\CCCCCCCC(=O)O)[N+](=O)[O-] [10-Nitrooleate] : −22.42
8. O=P(O)(O)O[C@@H]1C(O)[C@@H](OP(=O)(O)O)[C@@H](O)C(O)[C@H]1O (some centres unmarked) [(sodium salt)] : −1.38
